Just for reference, ChEMBL document CHEMBL5357062 is where these values come from.

- Assay system: 3-beta-hydroxysteroid-Delta(8),Delta(7)-isomerase (Homo sapiens)
- Sequence (Q15125 whole entry): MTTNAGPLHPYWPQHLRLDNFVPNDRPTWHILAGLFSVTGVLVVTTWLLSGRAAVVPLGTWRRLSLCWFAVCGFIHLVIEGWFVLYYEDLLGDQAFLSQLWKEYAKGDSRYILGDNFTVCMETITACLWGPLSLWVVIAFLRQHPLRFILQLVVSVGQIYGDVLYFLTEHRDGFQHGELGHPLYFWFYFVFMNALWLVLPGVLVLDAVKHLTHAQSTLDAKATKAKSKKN
- Assay procedure: Inhibition of EBP in HEK293T cells using zymosterol-d5 as substrate preincubated for 30 mins followed by substrate addition and measured after 4 hrs by LC-MS analysis
pIC50: −log10 of the molar value.
Outcome measure: pIC50

Request: Quote pIC50 reported for O=S(=O)(c1cc(F)cc(F)c1)N1CCOC2(CCN(C3CCOCC3)C2)C1 (stereo unspecified) please.
Response: > 7.00

Request: Quote pIC50 reported for CC(C)c1cc(S(=O)(=O)N2CC3(CN(C4CCOCC4)C3)C2)n(C)n1 please.
Response: > 7.00

Request: Quote pIC50 reported for Cc1nc(C(F)(F)F)ccc1S(=O)(=O)N1CC2(CN(C(C)C3CCCO3)C2)C1 (stereo unspecified) please.
Response: > 7.00

Request: Quote pIC50 reported for O=S(=O)(c1ccc(C(F)(F)F)nc1C1CC1)N1CC2(CN(C3CCOCC3)C2)C1 please.
Response: > 7.00

Request: Quote pIC50 reported for Cn1nc(C(F)(F)F)cc1S(=O)(=O)N1CC2(CN(CC3CC4(COC4)C3)C2)C1 please.
Response: > 7.00

Request: Quote pIC50 reported for Cn1nc(C(F)(F)F)cc1S(=O)(=O)N1CCC2(CCN(C3CCOCC3)C2)CC1 please.
Response: > 7.00
